molecular target: binding partner of C5A (XPA23); assay: Biacore, K-off
# fold difference in affinity vs original per entry

binder	fold difference in affinity vs original [fold]
C5A (XPA23) VH G56Y (antibody, V domains shown) VH: EVQLLESGGGLVQPGGSLRLSCAASGFTFSKYFMFWVRQAPGKGLEWVSVISPSGYMTRYADSVKGRFTISRDNSKNTLYLQMNSLRAEDTAVYYCARVGYGGNSDYWGQGTLVTVSS VL: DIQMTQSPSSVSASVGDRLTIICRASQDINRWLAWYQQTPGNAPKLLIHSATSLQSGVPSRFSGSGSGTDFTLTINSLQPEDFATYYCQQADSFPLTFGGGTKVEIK	1.27
C5A (XPA23) VH Y107T (antibody, V domains shown) VH: EVQLLESGGGLVQPGGSLRLSCAASGFTFSKYFMFWVRQAPGKGLEWVSVISPSGGMTRYADSVKGRFTISRDNSKNTLYLQMNSLRAEDTAVYYCARVGYGGNSDTWGQGTLVTVSS VL: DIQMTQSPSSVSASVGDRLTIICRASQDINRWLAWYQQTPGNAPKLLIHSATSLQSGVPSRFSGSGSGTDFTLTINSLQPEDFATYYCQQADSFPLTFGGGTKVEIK	0.83

Hey, just so you know, these numbers are from patent US20110118447A1.
